Recorded values, source patent US20250009697A1.

target: Human TRPA1 (hTRPA1) (Homo sapiens, UniProt O75762); construct: expressed in transfected cells; assay: TRPA1 Activation Test 2: intracellular Ca2+ imaging assay 2-1 to 2-3, hTRPA1 stably expressing cell line; assay type: cell-based; conditions: test sample 200 μM; Table 10
Sequence (O75762 whole entry): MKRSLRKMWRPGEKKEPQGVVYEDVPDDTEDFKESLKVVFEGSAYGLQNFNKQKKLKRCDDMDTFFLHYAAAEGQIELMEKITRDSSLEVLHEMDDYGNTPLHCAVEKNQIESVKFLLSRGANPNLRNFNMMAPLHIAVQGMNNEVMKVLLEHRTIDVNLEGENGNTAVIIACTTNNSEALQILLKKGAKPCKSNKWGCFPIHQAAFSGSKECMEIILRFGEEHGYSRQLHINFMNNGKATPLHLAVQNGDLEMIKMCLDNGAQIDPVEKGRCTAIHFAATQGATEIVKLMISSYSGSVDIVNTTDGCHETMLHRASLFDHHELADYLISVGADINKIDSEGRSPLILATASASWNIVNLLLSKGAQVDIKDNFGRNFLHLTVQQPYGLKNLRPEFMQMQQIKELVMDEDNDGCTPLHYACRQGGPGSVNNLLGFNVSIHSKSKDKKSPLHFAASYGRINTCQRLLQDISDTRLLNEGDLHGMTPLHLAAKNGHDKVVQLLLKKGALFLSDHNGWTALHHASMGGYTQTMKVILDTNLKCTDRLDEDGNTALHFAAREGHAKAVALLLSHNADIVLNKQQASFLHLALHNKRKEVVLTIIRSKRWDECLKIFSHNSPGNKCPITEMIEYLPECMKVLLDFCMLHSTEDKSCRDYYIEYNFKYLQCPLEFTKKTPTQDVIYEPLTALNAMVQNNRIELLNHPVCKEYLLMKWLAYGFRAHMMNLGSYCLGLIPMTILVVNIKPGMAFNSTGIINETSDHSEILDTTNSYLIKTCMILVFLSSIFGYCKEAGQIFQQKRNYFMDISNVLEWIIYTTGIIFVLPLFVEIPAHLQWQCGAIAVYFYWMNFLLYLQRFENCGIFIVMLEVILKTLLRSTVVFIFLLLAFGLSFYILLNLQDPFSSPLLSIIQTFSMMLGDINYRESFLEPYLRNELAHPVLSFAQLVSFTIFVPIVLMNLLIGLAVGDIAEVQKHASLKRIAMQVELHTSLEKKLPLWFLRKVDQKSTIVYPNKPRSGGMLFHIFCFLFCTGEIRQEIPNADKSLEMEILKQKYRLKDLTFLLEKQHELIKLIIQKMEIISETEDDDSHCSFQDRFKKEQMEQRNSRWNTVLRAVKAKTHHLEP
TRPA1 activation rates values for the compounds below.
Value expressed in %; do not type the unit.

{"columns": ["Compound", "Target or system", "Measurement unit", "Reported result"],
 "data": [
  ["Cc1cc(O)c2c(c1)C(=O)c1cc(O)cc(O)c1C2=O [Emodin, emodin]", "Human TRPA1 (hTRPA1) (Homo sapiens, UniProt O75762)", "%", 43.1],
  ["O=C(O)c1cc(O)c2c(c1)[C@H]([C@H]1c3cc(C(=O)O)cc(O)c3C(=O)c3c(O[C@@H]4O[C@H](CO)[C@@H](O)[C@H](O)[C@H]4O)cccc31)c1cccc(O[C@@H]3O[C@H](CO)[C@@H](O)[C@H](O)[C@H]3O)c1C2=O [Sennoside A, reference compound]", "Human TRPA1 (hTRPA1) (Homo sapiens, UniProt O75762)", "%", 3.33],
  ["O=C1c2cccc(O)c2C(=O)c2c(O)cccc21 [Dantron, reference compound]", "Human TRPA1 (hTRPA1) (Homo sapiens, UniProt O75762)", "%", 4.72],
  ["O=C(O)c1cc(O)c2c(c1)C(=O)c1cccc(O)c1C2=O [Rhein, rhein]", "Human TRPA1 (hTRPA1) (Homo sapiens, UniProt O75762)", "%", 85.7],
  ["Cc1cc(O)c2c(c1)C(=O)c1cccc(O)c1C2=O [Chrysophanol, reference compound]", "Human TRPA1 (hTRPA1) (Homo sapiens, UniProt O75762)", "%", 3.27]
]}

Looking for the measured TRPA1 activation rates of O=C1c2cccc(O)c2C(=O)c2cccc(O)c21 [Anthrarufin, reference compound] , can you help?
0.587
